test: Lipophilicity, log D of the compound; assay type: physicochemical; conditions: octanol/water; read-out: logD
measure: logD
Lab note: jot the number down without any unit.

### Prompt Give a short answer stating reported logD for COCC1CC(C(=O)NC[C@H]2CCCO2)CN(Cc2nc(N3CCOCC3)oc2C)C1 (stereo partly specified) .
### Response 0.8

----------
experiment: Clearance in rat; type: ADME, organism-based; settings: in vivo
measure: clearance (mL/min/kg)
Dear colleague, please return just the value in mL/min/kg, with no unit written.

### Prompt Indicate its recorded clearance; the molecule in question is CC[C@@H]1C[C@@H](C(=O)NCc2cccc(C)n2)CN(Cc2nc(-c3ccccc3)oc2C)C1
### Response 98

Values compiled from ChEMBL document CHEMBL1777746.
